# studySystem: UniProt P07711
# Sequence (P07711 whole entry): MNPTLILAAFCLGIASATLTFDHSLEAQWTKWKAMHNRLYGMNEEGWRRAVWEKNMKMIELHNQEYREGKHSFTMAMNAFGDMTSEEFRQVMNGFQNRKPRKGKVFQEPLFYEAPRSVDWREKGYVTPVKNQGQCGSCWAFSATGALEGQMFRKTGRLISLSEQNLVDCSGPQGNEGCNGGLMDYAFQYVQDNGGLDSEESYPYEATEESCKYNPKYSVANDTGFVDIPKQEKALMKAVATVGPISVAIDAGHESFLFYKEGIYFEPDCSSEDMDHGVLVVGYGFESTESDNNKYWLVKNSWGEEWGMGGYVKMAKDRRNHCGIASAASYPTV
# measurementNotes: Inhibition of human recombinant cathepsin L by fluorescence assay
Provide the recorded IC50 for the entries that follow.

Entry N#Cc1ncc2cc(COc3ccc(C(=O)O)cc3)n(CCC3CCCCC3)c2n1 , IC50 reported as > 2 µM

Entry N#Cc1ncc2cc(COc3cccc(CCC(=O)O)c3)n(CCC3CCCCC3)c2n1 , IC50 reported as > 5 µM

Entry N#Cc1ncc2cc(CNc3ccccc3)n(CCC3CCCCC3)c2n1 , IC50 reported as > 1 µM

Entry N#Cc1ncc2cc(Cc3ccc(Cl)cc3)n(CCC3CCCC3)c2n1 , IC50 reported as 0.26 µM
